Target Entity: Long-chain-fatty-acid--AMP ligase FadD28 (Mycobacterium tuberculosis, UniProt P9WQ59)
Sequence (P9WQ59 whole entry): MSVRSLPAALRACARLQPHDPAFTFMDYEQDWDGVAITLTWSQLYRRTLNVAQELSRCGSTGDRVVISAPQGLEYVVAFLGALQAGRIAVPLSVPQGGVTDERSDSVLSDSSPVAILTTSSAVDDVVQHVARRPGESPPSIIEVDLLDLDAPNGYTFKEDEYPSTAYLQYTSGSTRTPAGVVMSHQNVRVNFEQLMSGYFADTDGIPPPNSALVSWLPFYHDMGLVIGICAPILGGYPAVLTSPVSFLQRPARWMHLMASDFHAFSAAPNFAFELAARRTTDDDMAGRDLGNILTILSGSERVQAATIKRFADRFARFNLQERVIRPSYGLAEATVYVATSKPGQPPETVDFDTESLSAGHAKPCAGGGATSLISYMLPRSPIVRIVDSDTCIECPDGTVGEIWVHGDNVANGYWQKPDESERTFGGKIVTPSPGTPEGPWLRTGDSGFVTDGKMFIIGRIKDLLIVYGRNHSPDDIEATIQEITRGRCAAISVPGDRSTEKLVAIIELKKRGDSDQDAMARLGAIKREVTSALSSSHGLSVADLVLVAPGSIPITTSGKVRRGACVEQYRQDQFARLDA
Assay Protocol: Fluorescence polarization aasay to screen for inhibitors that compete for the binding of FadD28 to a bisubstrate Measured in Biochemical System Using Plate Reader - 2147-01_Inhibitor_Dose_CherryPick_Activity.
Format: functional, Mycobacterium tuberculosis H37Rv
Calls of active or inactive are those of the source.
Response enum: t = active, f = inactive

Example cases with answers are listed next.
> print(dat)
                                   compound                             target.entity  label.value
1  COc1ccc(C2CC(=O)Oc3c(C(C)C)ccc(C)c32)cc1 (centres undefined)  Long-chain-fatty-acid--AMP ligase FadD28 (Mycobacterium tuberculosis, UniProt P9WQ59)            f
2  O=C(O)c1[nH]c2ccccc2c1C(c1c(F)cccc1Cl)c1c(C(=O)O)[nH]c2ccccc12  Long-chain-fatty-acid--AMP ligase FadD28 (Mycobacterium tuberculosis, UniProt P9WQ59)            t
3  O=C(N/N=C/c1ccc(O)c([N+](=O)[O-])c1)C1CC1(c1ccccc1)c1ccccc1 (centres undefined)  Long-chain-fatty-acid--AMP ligase FadD28 (Mycobacterium tuberculosis, UniProt P9WQ59)            t

Now for another entry.
Recorded test outcome, item Cc1cccc(NC(=O)CSc2nnc(-c3ccco3)c(-c3ccco3)n2)c1C
f

###

Here the recorded EC50 is given for each entry.
Assay Protocol: inhibitors of firefly luciferase expression or activity, dose response, H4 neuroglioma cells, luminescence (AID 1990)
Format: functional, cell-based
Calls of active or inactive are those of the source.

Consider the following illustrative entries.
> print(dat)
                         structure.notation  reported.metric         recorded.value
1  COc1cc2ccccc2cc1C(=O)Nc1sc2c(c1C(N)=O)CCN(C(C)C)C2             EC50  > 120 µM (not active)
2  Cc1ccc(CSc2nc3c(c(=O)[nH]c(=O)n3C)n2CCC(C)C)cc1             EC50       24.8 µM (active)
3  CCCc1cc(-c2nc(N)ncc2-c2ccc3c(c2)OCCCO3)c(O)cc1OC             EC50       14.7 µM (active)

Proceeding to the next compound to report its EC50.
Need EC50 of Cn1nc(-c2ccc(Cl)cc2)nc2c(=O)n(C)c(=O)nc1-2 , thanks.
5.59 µM (inconclusive)

###

Target Entity: Calpain-2 catalytic subunit (Sus scrofa, UniProt P43367)
Sequence (P43367 whole entry): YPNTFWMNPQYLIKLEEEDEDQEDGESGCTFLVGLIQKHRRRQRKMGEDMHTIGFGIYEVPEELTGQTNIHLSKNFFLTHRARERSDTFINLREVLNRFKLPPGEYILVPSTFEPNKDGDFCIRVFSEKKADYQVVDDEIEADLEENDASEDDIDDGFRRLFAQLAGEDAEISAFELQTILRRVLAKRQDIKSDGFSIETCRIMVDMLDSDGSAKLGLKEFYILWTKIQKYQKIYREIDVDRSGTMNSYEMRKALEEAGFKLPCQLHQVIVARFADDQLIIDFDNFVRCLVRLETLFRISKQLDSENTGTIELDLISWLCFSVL
Assay Protocol: pig calpain II inhibitor potency, dose response, biochemical, fluorogenic peptide substrate (AID 1420)
Format: functional
Reported Metric: IC50

> print(dat)
                         compound                             target.entity  reported.metric        recorded.value
1  CCCN(C#N)c1nc(NCC)nc(NC(C)C)n1  Calpain-2 catalytic subunit (Sus scrofa, UniProt P43367)             IC50  > 50 µM (not active)

Need IC50 of CC(C(=O)Nc1ccccc1Oc1ccccc1)c1ccccc1 (stereo unspecified) , thanks.
19.8 µM (not active)

###

Target Entity: Streptokinase A (Streptococcus pyogenes serotype M1, UniProt P10520)
Sequence (P10520 whole entry): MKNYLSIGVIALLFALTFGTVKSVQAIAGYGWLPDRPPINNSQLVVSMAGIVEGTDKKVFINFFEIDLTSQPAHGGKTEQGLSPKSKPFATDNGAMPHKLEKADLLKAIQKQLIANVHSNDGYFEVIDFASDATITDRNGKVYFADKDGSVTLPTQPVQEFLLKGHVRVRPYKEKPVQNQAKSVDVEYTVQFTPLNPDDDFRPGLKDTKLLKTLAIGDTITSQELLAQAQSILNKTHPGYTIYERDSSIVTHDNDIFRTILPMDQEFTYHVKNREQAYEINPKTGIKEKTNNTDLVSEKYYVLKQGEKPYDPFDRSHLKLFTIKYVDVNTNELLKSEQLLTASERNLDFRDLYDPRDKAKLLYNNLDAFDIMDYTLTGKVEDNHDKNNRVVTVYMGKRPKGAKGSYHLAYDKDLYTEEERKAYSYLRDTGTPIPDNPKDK
Assay Protocol: S. pyogenes streptokinase expression inhibitors, potency, dose response, plasminogen activation absorbance, OD405 (AID 1914);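 note: secreted streptokinase activity via plasminogen activation per viability signal from cell pellet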
Type: functional, Streptococcus pyogenes M1 GAS
Reported Metric: EC50

// fetch Streptokinase A (Streptococcus pyogenes serotype M1, UniProt P10520) EC50 for COc1ccc(C(NC(=O)C(C)C)c2ccc3cccnc3c2O)cc1 (stereo not given)
> 150 µM (not active)

Same again, this time with CC(C)C[C@H](NC(=O)c1[nH]cnc1C(=O)N[C@@H](C)c1ccccc1)C(=O)OCc1ccccc1
> 150 µM (inconclusive)

Same again, this time with Cc1nn(-c2nc3ccccc3[nH]2)c(N)c1-c1ccc(Cl)cc1
> 150 µM (not active)

Same again, this time with Cc1cccc(-n2ncc3c2CCCC3NC(=O)CCN2Cc3ccccc3C2=O)c1C (stereo not given)
> 150 µM (not active)

Same again, this time with O=C(Cc1ccc(Br)cc1)Nc1nc2ccccc2[nH]1
> 150 µM (not active)

###

Here the recorded CC50 is given for each entry.
Assay Protocol: Vero E6 cell cytotoxicity, dose response, cytotoxicity control for non-replicating M. tuberculosis project, secondary assay (AID 492998)
Assay type: functional, VeroE6
Condition Description: Mycobacterium tuberculosis, Vero C1008
Activity calls are given as the source filed them.

Need CC50 of Cc1nn2c(NCc3ccccn3)cc(C(C)C)nc2c1-c1ccccc1 , thanks.
15.8 µM (active)

Same again, this time with CCCCCn1c(=O)c(C(=O)Nc2nc(CC(=O)OCC)cs2)c(O)c2ccccc21
11.8 µM (active)

Same again, this time with COc1cc2ccccc2cc1C(=O)Nc1sc2c(c1C(N)=O)CCN(C(C)C)C2
4.6 µM (active)

Same again, this time with Cc1cc(Br)ccc1OCC(=O)NNC(=O)c1cnccn1
17.8 µM (active)

Same again, this time with Cc1c(CN(C)C)c2c(n1Cc1ccccc1)C(=O)c1ccc(Br)cc1-2
15.3 µM (active)

###

Target Entity: Corticotropin-releasing factor receptor 2/Corticotropin-releasing factor-binding protein (Homo sapiens, UniProt P24387+Q13324)
Sequence (Q13324 whole entry): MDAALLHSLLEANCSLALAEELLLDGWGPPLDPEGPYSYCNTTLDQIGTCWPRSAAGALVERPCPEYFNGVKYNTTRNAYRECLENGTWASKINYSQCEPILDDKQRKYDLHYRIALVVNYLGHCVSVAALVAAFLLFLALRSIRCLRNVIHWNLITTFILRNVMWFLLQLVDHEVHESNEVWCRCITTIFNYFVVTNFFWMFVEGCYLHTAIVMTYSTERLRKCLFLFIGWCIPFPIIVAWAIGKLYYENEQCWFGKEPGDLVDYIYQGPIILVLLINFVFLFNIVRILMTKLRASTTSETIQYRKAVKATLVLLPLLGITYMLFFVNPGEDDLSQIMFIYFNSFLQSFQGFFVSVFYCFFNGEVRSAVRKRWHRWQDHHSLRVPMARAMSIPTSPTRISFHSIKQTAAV
Sequence (P24387 whole entry): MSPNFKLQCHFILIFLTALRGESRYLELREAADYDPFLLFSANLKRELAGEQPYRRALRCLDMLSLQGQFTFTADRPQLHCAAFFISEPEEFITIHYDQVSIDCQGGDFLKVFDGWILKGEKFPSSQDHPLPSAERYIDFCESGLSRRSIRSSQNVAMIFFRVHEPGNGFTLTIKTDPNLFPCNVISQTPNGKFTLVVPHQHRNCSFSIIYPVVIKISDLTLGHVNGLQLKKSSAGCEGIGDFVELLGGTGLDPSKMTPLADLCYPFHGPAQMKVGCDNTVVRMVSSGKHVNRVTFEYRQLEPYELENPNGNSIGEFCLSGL
Assay Protocol: Dose Response confirmation of uHTS hits for small molecule antagonists of the CRF-binding protein and CRF-R2 receptor complex.
Format: functional
Condition Description: read-out: IC50_Mean
Active and inactive are the calls of the source.
Response enum: 1 for active, -1 for inactive

> print(dat)
                                   compound  label.value
1    O=C(Nc1cc(Cl)cc(Cl)c1)c1coc(=O)c(Br)c1            1
2  Cc1nn(C)c(C)c1NC(=O)c1cc2nc(-c3ccco3)cc(C(F)(F)F)n2n1           -1
3            Clc1ccc(-c2csc(N3CCOCC3)n2)cc1           -1
4  CC1(C)Cc2ccccc2-c2c1c(=O)n(Cc1ccccc1)c1nnnn21           -1
5  Cn1nc([N+](=O)[O-])nc1Oc1ccc(C(C)(C)C)cc1            1

Now for another entry.
Recorded test outcome, item CCc1ccc(NC(=O)Cn2nc(C(=O)O)c3ccccc3c2=O)cc1
-1

###

Target Entity: Sentrin-specific protease 8 (Homo sapiens, UniProt Q96LD8);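 note: luminescence read-out of SENP8 inhibition, dose-response confirmation following an ultra-high-throughput screen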
Sequence (Q96LD8 whole entry): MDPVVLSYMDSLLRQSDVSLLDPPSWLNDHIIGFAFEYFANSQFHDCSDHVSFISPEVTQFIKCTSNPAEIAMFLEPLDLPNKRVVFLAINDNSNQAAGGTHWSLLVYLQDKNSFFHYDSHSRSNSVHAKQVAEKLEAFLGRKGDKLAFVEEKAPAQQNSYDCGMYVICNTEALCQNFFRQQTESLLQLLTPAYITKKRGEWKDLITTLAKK
Assay type: functional
The source made the active and inactive calls.
Reported Metric: IC50

> print(dat)
                         structure.notation    recorded.value
1  NS(=O)(=O)c1ccc(NC(=O)COC(=O)c2ccc([N+](=O)[O-])s2)cc1  4.33 µM (active)
2      CCCCNc1cc(NC(C)=O)cc2cc(OC)c(OC)cc12  18.3 µM (active)

Proceeding to the next molecule to report its IC50.
Need IC50 of Cc1cccnc1Nc1nc(-c2ccc(O)cc2O)cs1 , thanks.
15.5 µM (active)

###

Target Entity: Estrogen receptor beta (Homo sapiens, UniProt Q92731)
Sequence (Q92731 whole entry): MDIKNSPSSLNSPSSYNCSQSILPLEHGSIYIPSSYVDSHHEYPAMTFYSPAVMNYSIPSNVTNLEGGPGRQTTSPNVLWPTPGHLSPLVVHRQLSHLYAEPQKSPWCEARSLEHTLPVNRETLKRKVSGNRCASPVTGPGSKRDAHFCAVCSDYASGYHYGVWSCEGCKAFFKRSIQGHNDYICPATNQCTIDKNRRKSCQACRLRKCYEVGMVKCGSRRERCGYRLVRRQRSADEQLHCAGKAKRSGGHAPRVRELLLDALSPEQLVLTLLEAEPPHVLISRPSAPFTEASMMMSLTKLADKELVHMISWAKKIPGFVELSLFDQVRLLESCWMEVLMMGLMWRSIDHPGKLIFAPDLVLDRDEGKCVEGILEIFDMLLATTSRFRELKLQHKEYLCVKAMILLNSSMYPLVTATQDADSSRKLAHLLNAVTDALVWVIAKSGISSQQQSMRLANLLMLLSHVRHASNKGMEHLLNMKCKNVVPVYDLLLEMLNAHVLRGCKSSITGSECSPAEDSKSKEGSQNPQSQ
Assay Protocol: ERβ–SRC-3 coactivator interaction inhibitors, confirmation, orthogonal assay, biochemical, ELISA, streptavidin-HRP readout (AID 1060)
Here the recorded IC50 is given for each entry.

> print(dat)
                         structure.notation                             target.entity        recorded.value
1      COc1ccc(Cc2nnc(NC(=O)Cc3cccs3)s2)cc1  Estrogen receptor beta (Homo sapiens, UniProt Q92731)  72.5 nM (not active)
2  C=CCn1c(SCC(=O)NC(=O)NCc2ccco2)nc2sc(CC)cc2c1=O  Estrogen receptor beta (Homo sapiens, UniProt Q92731)  31.7 nM (not active)
3   CN1CCN(c2ccc(NC(=O)COc3ccccc3Cl)cc2)CC1  Estrogen receptor beta (Homo sapiens, UniProt Q92731)   814 nM (not active)

Proceeding to the next molecule to report its IC50.
// fetch Estrogen receptor beta (Homo sapiens, UniProt Q92731) IC50 for N#Cc1c(NC(=O)CN2CCCCC2)sc2c1CCCC2
34.3 nM (not active)
